- TARGET_OR_TEST_SYSTEM: T1, Biotin-huCGRPaSA (human, not fully specified; biotin (position not given))
- T1 construct: exact construct ('aSA') not explained; also called Biotin CGRPaSA; full-length (1-37) CGRP
- T1 peptide: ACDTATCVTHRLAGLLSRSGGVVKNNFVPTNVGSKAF
- ASSAY_EXPLANATION: ELISA, purified antibody; relative to reference 47-RM-20190815
Relative activity (%) reference
MEASUREMENT_NAME: Relative activity (%)

| BINDER | MEASURED_RESULT |
| --- | --- |
| C347 (antibody, V domains shown, 3H10-HC + 1A2-LC2; chimeric, human constant regions) VH: EVQLQQSGPELVQPGASVKISCKASGYTFTDYNMHWVKQSHGESLEWIGYIYPYNGHTVYNQKFRNKATMTVDSSSSTAYMDLRSLTSEDSAVYYCAKEGLGGYWGQGTTLTVSS VL: DIVLTQSPASLAVSLGQRATISCKASQNIDYDGYAYLNWYQQKPGQPPKVLIYSVFNLESGIPARFSGSGSGTDFTLNIHPVEEEDAATYYCQQSNEFPYTFGGGTKLEVK | 91.4 |
| C51 (antibody, V domains shown, 1B2-HC + 1F5-LC1; chimeric, human constant regions) VH: EVQLQQSGPEVVKPGASVRISCQASGYTFTDYNMHWVKQSHGKSLEWIGYIFPYNGVAVYNRKFRSKATLIIDKSSTTAYMELRSLTSEDSAVYYCAREGLGGYWGQGTTLTVSS VL: DIVLTQSPASLAVSLGQRATISCKASQNIDFDGYAYMNWYQHKPGQPPRVLIYSVFNLESGIPARFSGSGSGTDFTLNIHPVEEEDAATYYCQQSHEVPYTFGGGTNLEIK | 56 |
| C232 (antibody, V domains shown, 3C1-HC + 1A2-LC2; chimeric, human constant regions) VH: EVQLQQSGPELVKPGASMKISCKASGYSFTGYTMNWVKQSHGNNLEWIGLINPYIGNTHYNQKFKDKATFTVDRSSSTAYMALLSLTSEDSAVYYCARELDSGFDYWGQGTTLTVSS VL: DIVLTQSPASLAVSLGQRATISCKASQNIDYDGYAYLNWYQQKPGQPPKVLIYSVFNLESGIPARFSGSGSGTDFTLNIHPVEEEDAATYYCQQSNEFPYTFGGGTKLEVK | 3.4 |
| C120 (antibody, V domains shown, 2B8-HC1 + 1F5-LC1; chimeric, human constant regions) VH: EVQLQQSGPELVKPGASVKISCKASGYTFTDYNMHWVKQSHGKSLEWIGNIYPYNGGTVYNQKFNNKATLTVHTSSSTAYMDLRSLTSDDSAVYYCAREGLGGYWGQGTTLTVSS VL: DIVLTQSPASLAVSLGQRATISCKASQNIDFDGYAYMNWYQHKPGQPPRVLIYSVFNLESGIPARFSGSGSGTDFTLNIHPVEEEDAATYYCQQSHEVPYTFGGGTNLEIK | 30.6 |
| C79 (antibody, V domains shown, 1F5-HC + 2B8-LC2; chimeric, human constant regions) VH: EVQLQQSGPELVKPGASVKISCKTSGYTFIDFNMHWVKQSHGKSLEWIGYIYPYNGDVVYNQNFTNKATLTVDSSSSTAYMELRRVTSEDSAIYYCAREGLGGYWGQGTTLTVSS VL: DVVLTQSPTSLAVSLGQRATISCQASQNIDGNTYMNWYQQKPGQPPKVLIYSIFNLESGIPARFSGSGSGTHFTLTIHPVEEEDAATYYCQQSNDYPYTFGGGTKLEIK | 59.8 |
| C85 (antibody, V domains shown, 1F5-HC + 3E5-LC; chimeric, human constant regions) VH: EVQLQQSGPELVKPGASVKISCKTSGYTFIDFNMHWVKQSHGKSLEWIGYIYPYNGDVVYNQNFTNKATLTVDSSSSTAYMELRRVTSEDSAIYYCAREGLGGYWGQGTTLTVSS VL: DIVLTQSPASLAVSLGQRATISCKASQNIDYDGYTYLNWYQQKPGQPPKVLIYSIFNLESGIPARFSGSGSGTDFTLNIHPVEEEDAATYYCQQSNEVPYTFGGGTKLEIK | 56.7 |
| C263 (antibody, V domains shown, 3E5-HC + 2B8-LC2; chimeric, human constant regions) VH: EVQLQQSGPELVKPGASVKISCKTSGYTFTDYNMHWVKQSHGKSLEWIGYISPYNGGTAYNQKFKFKSTLTVDTSSSTAYMELRSLTSEDSAVYYCAREGLGGYWGQGTTLTVSS VL: DVVLTQSPTSLAVSLGQRATISCQASQNIDGNTYMNWYQQKPGQPPKVLIYSIFNLESGIPARFSGSGSGTHFTLTIHPVEEEDAATYYCQQSNDYPYTFGGGTKLEIK | 111 |
| C69 (antibody, V domains shown, 1B2-HC + 3H10-LC2; chimeric, human constant regions) VH: EVQLQQSGPEVVKPGASVRISCQASGYTFTDYNMHWVKQSHGKSLEWIGYIFPYNGVAVYNRKFRSKATLIIDKSSTTAYMELRSLTSEDSAVYYCAREGLGGYWGQGTTLTVSS VL: DIVLTQSPDSLAVSLGQRATISCKASQNIDYGGYSYMNWYQQKPGQPPKVLIYSVFNLESGIPARFSGSGSGTDFTLTIHPVEEEDAATYYCQQSNEAPYTFGGGTKLEIR | 221 |
| C245 (antibody, V domains shown, 3C1-HC + 3C1-LC; chimeric, human constant regions; also called chimeric antibody C245) VH: EVQLQQSGPELVKPGASMKISCKASGYSFTGYTMNWVKQSHGNNLEWIGLINPYIGNTHYNQKFKDKATFTVDRSSSTAYMALLSLTSEDSAVYYCARELDSGFDYWGQGTTLTVSS VL: DVLMTQTPLSLPVSLGDQASLSCRSSQNIVHSNGDTYLEWYLQKPGQSPKLLIYKVSNRFSGVPDRFSGSGSGTDFTLKISRVEAEDLGVYYCYQGSHVPWTFGGGTKLEIK | 240 |
| C255 (antibody, V domains shown, 3E5-HC + 1A2-LC2; chimeric, human constant regions) VH: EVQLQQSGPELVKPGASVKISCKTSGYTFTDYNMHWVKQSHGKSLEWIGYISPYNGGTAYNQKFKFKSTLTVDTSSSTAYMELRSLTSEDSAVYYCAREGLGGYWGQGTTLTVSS VL: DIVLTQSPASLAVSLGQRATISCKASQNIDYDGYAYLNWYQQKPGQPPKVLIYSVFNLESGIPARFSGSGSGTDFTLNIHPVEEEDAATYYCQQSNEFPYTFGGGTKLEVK | 108 |

The origin of these recorded values is patent US20260125454A1.
